study target: T1, human glucose-dependent insulinotropic polypeptide (GIP) receptor (human, UniProt P48546 22-466)
T1 sequence (looked up): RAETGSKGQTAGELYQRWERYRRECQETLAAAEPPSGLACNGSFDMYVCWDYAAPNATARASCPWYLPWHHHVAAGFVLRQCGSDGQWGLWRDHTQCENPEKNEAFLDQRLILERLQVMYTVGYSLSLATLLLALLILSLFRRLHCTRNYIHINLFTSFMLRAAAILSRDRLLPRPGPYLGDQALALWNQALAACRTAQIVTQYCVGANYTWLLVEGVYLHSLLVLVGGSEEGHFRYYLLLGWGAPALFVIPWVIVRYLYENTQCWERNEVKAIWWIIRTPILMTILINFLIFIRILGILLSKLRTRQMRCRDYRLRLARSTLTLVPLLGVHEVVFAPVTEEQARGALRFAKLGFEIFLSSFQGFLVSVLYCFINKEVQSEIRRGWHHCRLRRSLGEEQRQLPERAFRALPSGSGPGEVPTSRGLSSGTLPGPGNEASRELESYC
experiment notes: cell-based or functional assay
quantity kind: cAMP EC50 (nM)
Give bare numbers, in nM.

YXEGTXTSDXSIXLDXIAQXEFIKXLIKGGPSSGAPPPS (Aib2, αMeF(2F)6, 2Nal10, αMeL13, Orn16, Aib20, K24(Z), αMeY25, K28(Z), C-terminal NH2; Z = AEEA2-(γ-Glu)-(10-(4-carboxyphenoxy)decanoyl)) [Example 283]: 0.073

Provide reported cAMP EC50 for each item, in the same order as listed.
1. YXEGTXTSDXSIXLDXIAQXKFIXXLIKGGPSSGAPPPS (Aib2, αMeF(2F)6, 4Pal10, αMeL13, Orn16, Aib20, K21(Z), D-Glu24, αMeY25, K28(Z), C-terminal NH2; Z = AEEA3-(γ-Glu)-CO-(CH2)12-CO2H) [Example 227]
2. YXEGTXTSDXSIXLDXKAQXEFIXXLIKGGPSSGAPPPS (Aib2, αMeF(2F)6, OMeY10, αMeL13, Orn16, K17(Z), Aib20, D-Glu24, αMeY25, K28(Z), C-terminal NH2; Z = AEEA2-(γ-Glu)-CO-(CH2)12-CO2H) [Example 260]

[0.0224, 0.0239]
